Reported values of IC50 for individual entries
Assay: Concentration required to inhibit the maximum [14C]Gly-Sar uptake by Renal peptide transporter PepT2 in SKPT cells
Type: cell-based
Details: Rattus norvegicus
Peptide text beside a SMILES is read from it.
Reply with just the number (in mM).

Here are 6 compounds together with their reported answers.
N[C@@H](Cc1ccccc1)C(=O)NCC(=O)O (H-Phe-Gly-OH): 0.0172
N[C@@H](Cc1ccccc1)C(=O)CCC(=O)O: 0.0222
N[C@@H](Cc1ccccc1)[C@H](O)CCC(=O)O: 8.8
N[C@@H](Cc1ccccc1)[C@@H](O)/C=C/C(=O)O: 1.59
N[C@@H](Cc1ccccc1)[C@@H](O)CCC(=O)O: 8.18
N[C@@H](Cc1ccccc1)[C@H](O)/C=C/C(=O)O: 4.11

INPUT: I'd like to know its IC50. The compound in question is CC1=C(C(=O)O)N2C(=O)[C@@H](NC(=O)[C@H](N)c3ccccc3)[C@H]2SC1 [CEPHALEXIN ANHYDROUS]
OUTPUT: 0.0416

---

Assay: Affinity against Renal peptide transporter PepT2 in SKPT cells was measured by the inhibition of [14C]Gly-Sar uptake
Type: cell-based, Rattus norvegicus
Peptide text beside a SMILES is read from it.
RECORDED METRIC: pKi
Note on pKi: it is the negative log10 of concentration, concentration in mol/L.

N[C@@H](Cc1ccccc1)[C@@H](O)/C=C/C(=O)O: 2.87
N[C@@H](Cc1ccccc1)[C@H](O)/C=C/C(=O)O: 2.46
N[C@@H](Cc1ccccc1)[C@@H](O)CCC(=O)O: 2.16
CC1=C(C(=O)O)N2C(=O)[C@@H](NC(=O)[C@H](N)c3ccccc3)[C@H]2SC1 [CEPHALEXIN ANHYDROUS]: 4.45
N[C@@H](Cc1ccccc1)C(=O)NCC(=O)O (H-Phe-Gly-OH): 4.84

INPUT: Which pKi reading was recorded for the compound N[C@@H](Cc1ccccc1)C(=O)CCC(=O)O ?
OUTPUT: 4.73

INPUT: Subsequent entry: N[C@@H](Cc1ccccc1)[C@H](O)CCC(=O)O
OUTPUT: 2.13
